# tested-system: T1, human CD40-Fc protein (human, UniProt P25942 21-193)
# T1 construct: also called recombinant CD40 protein; not shown: Fc part
# T1 sequence (P25942 21-193 limits assumed): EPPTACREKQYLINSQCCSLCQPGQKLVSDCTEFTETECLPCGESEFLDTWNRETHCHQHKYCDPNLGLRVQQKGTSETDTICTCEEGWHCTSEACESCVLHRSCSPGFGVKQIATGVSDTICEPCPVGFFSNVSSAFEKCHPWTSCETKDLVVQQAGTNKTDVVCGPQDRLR
# assay: ForteBio Octet, human CD40-Fc, +/- human serum
result-type: Kd

Worked examples follow.
{"columns": ["binder", "Kd"],
 "data": [
  ["4D11 (Kirin/Astellas) anti-CD40 antibody (antibody, V domains shown) VH: QLQLQESGPGLLKPSETLSLTCTVSGGSISSPGYYGGWIRQPPGKGLEWIGSIYKSGSTYHNPSLKSRVTISVDTSKNQFSLKLSSVTAADTAVYYCTRPVVRYFGWFDPWGQGTLVTVSS VL: AIQLTQSPSSLSASVGDRVTITCRASQGISSALAWYQQKPGKAPKLLIYDASNLESGVPSRFSGSGSGTDFTLTISSLQPEDFATYYCQQFNSYPTFGQGTKVEIK", "< 0.1 nM"],
  ["Antibody B (IgG1KO) (antibody, V domains shown) VH: EVQLVESGGGLVKPGGSLRLSCAASGFTFSDYGMHWVRQAPGKGLEWVAYISSGNRIIYYADTVKGRFTISRDNAKNSLYLQMNSLRAEDTAVYYCARQDGYRYAMDYWGQGTLVTVSS VL: DIVMTQSPDSLAVSLGEKVTINCKSSQSLLNSGNQKNYLTWHQQKPGQPPKLLIYWTSTRESGVPDRFSGSGSGTDFTLTISSLQAEDVAVYYCQNDYTYPLTFGGGTKVEIKR", "< 0.1 nM"],
  ["Antibody C (IgG1KO) (antibody, V domains shown, also called 2H11-159-94) VH: QVQLVQSGAEVKKPGASVKVSCTASGFNIKDYYVHWVKQAPGQGLEWMGRIDPEDGDSKYAPKFQGKATMTADTSTSTVYMELSSLRSEDTAVYYCTTSYYVGTYGYWGQGTLVTVSS VL: DIQMTQSPSSLSASVGDRVTITCSASSSVSYMLWFQQKPGKAPKLLIYSTSNLASGVPSRFSGSGSGTDFTLTISSLQPEDFATYYCQQRTFYPYTFGGGTKVEIKR", "< 0.1 nM"]
]}

Okay, now this binder:
Query string: What measured Kd goes with Antibody A (IgG1KO) (antibody, V domains shown, also called 20E2-12) VH: EVQLVESGGGLVKPGGSLRLSCAASGFTFSDYGMHWVRQAPGKGLEWVAYISSGNRIIYYADTVKGRFTISRDNAKNSLYLQMNSLRAEDTALYYCARQDGYRYAMDYWAQGTLVTVSS VL: DIVMTQSPDSLAVSLGERATMSCKSSQSLLNSGNQKNYLTWHQQKPGQPPKLLIYWTSTRESGVPDRFSGSGSGTDFTLTISSLQAEDVAVYYCQNDYTYPLTFGGGTKVEIKR ?
Result string: < 0.1 nM
